test_details: The drug is tested on WLS-069 corresponding to human gut metagenome with ENA study accession number: PRJEB37062 and ENA sample accession number: ERS12561748 for biotransformation under anaerobic condition. The drug concentrations were measured over 9 timepoints collected between 0 and 24 hours of incubation by liquid-chromatography-coupled mass spectrometry (LC–MS); also: call rule not given here
condition_description: 2 µM

| molecule | Bacterial Biotransformation |
| --- | --- |
| CCN(CC)CC#CCOC(=O)C(O)(c1ccccc1)C1CCCCC1.Cl (configuration not stated) [OXYBUTYNIN CHLORIDE] | Compound metabolized |
| Cc1ccc(-c2nc3ccc(C)cn3c2CC(=O)N(C)C)cc1 | Compound NOT metabolized |
| Cc1ccnc2c1NC(=O)c1cccnc1N2C1CC1 | Compound NOT metabolized |
| Nc1nc2ccc(OC(F)(F)F)cc2s1 | Compound metabolized |
| Cc1ccccc1N1C(=O)c2cc(S(N)(=O)=O)c(Cl)cc2NC1C (configuration not stated) | Compound NOT metabolized |
| CN1C(=O)CCS(=O)(=O)C1c1ccc(Cl)cc1 (configuration not stated) | Compound NOT metabolized |
| CNC(=C[N+](=O)[O-])NCCSCc1ccc(CN(C)C)o1 | Compound metabolized |
| NC12CC3CC(CC(C3)C1)C2 | Compound NOT metabolized |
| CCOc1ccc(NC(C)=O)cc1 | Compound NOT metabolized |
| CCC(=O)NCC[C@@H]1CCc2ccc3c(c21)CCO3 | Compound metabolized |
| O=C1NCC2(CCN(CCc3ccccc3)CC2)O1 [FENSPIRIDE] | Compound NOT metabolized |
| CS(=O)(=O)O.O.O.O.O=C1Cc2cc(CCN3CCN(c4nsc5ccccc45)CC3)c(Cl)cc2N1 [ZIPRASIDONE MESYLATE] | Compound metabolized |
| c1ccc([C@H]2CN3CCSC3=N2)cc1 | Compound metabolized |
| O=C(CCCN1CCC(O)(c2ccc(Cl)cc2)CC1)c1ccc(F)cc1 | Compound metabolized |
| OCCOCCN1CCN(C2=Nc3ccccc3Sc3ccccc32)CC1 | Compound NOT metabolized |
| CCc1nn(CCCN2CCN(c3cccc(Cl)c3)CC2)c(=O)n1CCOc1ccccc1 | Compound metabolized |
| CCC(COC(=O)c1cc(OC)c(OC)c(OC)c1)(c1ccccc1)N(C)C.O=C(O)/C=C\C(=O)O (configuration not stated) | Compound metabolized |
